target: NAMPT (Homo sapiens); construct: His tag; host or cells: E. coli; assay: Biochemical inhibition assay: NAMPT enzymatic reaction, NMN quantified by mass spectrometry; conditions: NAMPT enzymatic reaction; read-out: Biochem IC50
Sequence (P43490 whole entry): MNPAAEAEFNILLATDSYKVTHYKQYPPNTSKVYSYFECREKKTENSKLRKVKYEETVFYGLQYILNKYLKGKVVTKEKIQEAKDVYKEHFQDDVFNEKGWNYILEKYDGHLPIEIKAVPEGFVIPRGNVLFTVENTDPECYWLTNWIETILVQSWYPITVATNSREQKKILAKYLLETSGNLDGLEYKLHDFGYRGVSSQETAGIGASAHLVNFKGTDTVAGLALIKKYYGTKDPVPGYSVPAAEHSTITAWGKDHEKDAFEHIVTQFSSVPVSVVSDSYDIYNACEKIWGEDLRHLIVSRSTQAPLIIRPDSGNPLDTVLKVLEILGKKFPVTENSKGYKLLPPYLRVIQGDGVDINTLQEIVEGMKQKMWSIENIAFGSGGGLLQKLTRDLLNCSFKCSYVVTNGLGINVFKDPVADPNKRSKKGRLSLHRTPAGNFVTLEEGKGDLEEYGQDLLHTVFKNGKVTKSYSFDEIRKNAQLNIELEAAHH
pIC50: −log10 of the molar value.
Note to self: values exactly at 8 are 1. So pIC50 at or above 8 is 1, below is 0.

IN: Has CCCCOc1cc(F)ccc1S(=O)(=O)c1ccc(CNC(=O)c2cc3ccncc3o2)cc1 a recorded pIC50 greater than or equal to 8?
OUT: 0

IN: Has COc1ccc(F)cc1NS(=O)(=O)c1ccc(CNC(=O)c2cc3cnccc3[nH]2)cc1 a recorded pIC50 greater than or equal to 8?
OUT: 0

IN: Has COc1cc(S(=O)(=O)c2ccc(CNC(=O)c3cnc4[nH]ncc4c3)cc2)ccc1C a recorded pIC50 greater than or equal to 8?
OUT: 1

IN: Has COc1ccc(S(=O)(=O)c2ccc(CNC(=O)c3cnc4[nH]ncc4c3)cc2)c(F)c1 a recorded pIC50 greater than or equal to 8?
OUT: 0

IN: Has Cc1ccc(F)c(S(=O)(=O)c2ccc(CNC(=O)c3cnc4[nH]ncc4c3)cc2)c1 a recorded pIC50 greater than or equal to 8?
OUT: 0

IN: Has COc1cc(S(=O)(=O)c2ccc(CNC(=O)c3cc4ccncc4s3)cc2)ccc1Cl a recorded pIC50 greater than or equal to 8?
OUT: 1

IN: Has COc1ccc(S(=O)(=O)c2ccc(CNC(=O)c3cc4ccncc4s3)cc2)cc1F a recorded pIC50 greater than or equal to 8?
OUT: 1

IN: Has Cc1ccccc1S(=O)(=O)c1ccc(CNC(=O)c2ccc3nccn3c2)cc1 a recorded pIC50 greater than or equal to 8?
OUT: 0

IN: Has Cc1cccc(S(=O)(=O)c2ccc(CNC(=O)c3cc4ccncc4s3)cc2)c1 a recorded pIC50 greater than or equal to 8?
OUT: 1

IN: Has O=C(NCc1ccc(S(=O)(=O)c2ccc(Cl)c(F)c2)cc1)c1cc2ccncc2o1 a recorded pIC50 greater than or equal to 8?
OUT: 0

IN: Has Cc1ccc(S(=O)(=O)c2ccc(CNC(=O)c3cnc4nccn4c3)cc2)cc1 a recorded pIC50 greater than or equal to 8?
OUT: 1

IN: Has O=C(NCc1ccc(S(=O)(=O)c2ccc(C(F)(F)F)cc2)cc1)c1cc2cnccc2[nH]1 a recorded pIC50 greater than or equal to 8?
OUT: 0

IN: Has Cc1c(F)cccc1S(=O)(=O)c1ccc(CNC(=O)c2cc3cnccc3[nH]2)cc1 a recorded pIC50 greater than or equal to 8?
OUT: 0

IN: Has CCCCOc1ccc(S(=O)(=O)c2ccc(CNC(=O)c3cc4ccncc4s3)cc2)c(C)c1 a recorded pIC50 greater than or equal to 8?
OUT: 1

IN: Has COc1ccc(F)cc1S(=O)(=O)c1ccc(CNC(=O)c2ccc3nccn3c2)cc1 a recorded pIC50 greater than or equal to 8?
OUT: 0

IN: Has Cc1c(Cl)cccc1S(=O)(=O)c1ccc(CNC(=O)c2cc3ccncc3o2)cc1 a recorded pIC50 greater than or equal to 8?
OUT: 1

IN: Has COc1cccc(S(=O)(=O)c2ccc(CNC(=O)c3cc4ccncc4s3)cc2)c1 a recorded pIC50 greater than or equal to 8?
OUT: 1

IN: Has CCOc1ccccc1S(=O)(=O)c1ccc(CNC(=O)c2cc3ccncc3o2)cc1 a recorded pIC50 greater than or equal to 8?
OUT: 0

IN: Has O=C(NCc1ccc(S(=O)(=O)c2ccccc2)cc1)N1CCc2nocc2C1 a recorded pIC50 greater than or equal to 8?
OUT: 0

IN: Has CCOc1cccc(S(=O)(=O)c2ccc(CNC(=O)c3cc4cnccc4[nH]3)cc2)c1F a recorded pIC50 greater than or equal to 8?
OUT: 0

IN: Has O=C(NCc1ccc(S(=O)(=O)c2ccc(C3CCCCC3)cc2)cc1)c1ccc2nccn2c1 a recorded pIC50 greater than or equal to 8?
OUT: 0

IN: Has Cc1ccc(C)c(S(=O)(=O)c2ccc(CNC(=O)c3cnc4[nH]ncc4c3)cc2)c1 a recorded pIC50 greater than or equal to 8?
OUT: 0

IN: Has COc1c(F)cccc1S(=O)(=O)c1ccc(CNC(=O)c2cc3cnccc3[nH]2)cc1 a recorded pIC50 greater than or equal to 8?
OUT: 0

IN: Has CCOc1cc(S(=O)(=O)c2ccc(CNC(=O)c3cc4cnccc4[nH]3)cc2)ccc1F a recorded pIC50 greater than or equal to 8?
OUT: 0
